target.entity: Jak2 (a.a. 828-1132) (Homo sapiens, UniProt O60674)
Construct: Jak2 (a.a. 828-1132); His tag (N); made in house; host or cells: insect cells (baculovirus)
Sequence (O60674 828-1132): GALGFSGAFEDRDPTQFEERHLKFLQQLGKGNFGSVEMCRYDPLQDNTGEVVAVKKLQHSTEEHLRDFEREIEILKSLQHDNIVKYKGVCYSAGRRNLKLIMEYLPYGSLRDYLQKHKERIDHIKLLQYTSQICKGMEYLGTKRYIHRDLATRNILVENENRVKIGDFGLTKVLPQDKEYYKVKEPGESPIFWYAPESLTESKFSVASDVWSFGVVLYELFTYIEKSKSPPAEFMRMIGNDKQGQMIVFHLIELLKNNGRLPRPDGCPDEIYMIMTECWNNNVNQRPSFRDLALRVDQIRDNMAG
assay: In vitro JAK kinase assay (HTRF, phosphorylation of biotinylated peptide), JAK2
Assay type: biochemical
study.conditions: 1 mM ATP; Examples 92-162; read-out: JAK2 IC50 (nM) @ 1 mM ATP
parameter.measured: IC50

molecule | IC50
C[C@H]1CN(CC(CC#N)n2cc(-c3ncnc4[nH]ccc34)cn2)CCN1C(=O)c1ccc(C#N)cc1F (mixture of isomers) [Example 162] | > 100 nM
CCC(CN1CCN(C(=O)c2ccc(F)cc2)CC1)n1cc(-c2ncnc3[nH]ccc23)cn1 (stereo not shown) [Example 116] | > 100 nM
Cc1c(Nc2cccc(F)c2F)ncnc1N1CCC(C(CC#N)n2cc(-c3ncnc4[nH]ccc34)cn2)CC1 (stereo not shown) [Example 153] | > 100 nM
COc1ccc(Br)cc1S(=O)(=O)N1CCCN(CC(CC#N)n2cc(-c3ncnc4[nH]ccc34)cn2)CC1 (stereo not shown) [Example 114] | 50 to 100 nM
CCC(CN1CCN(S(=O)(=O)c2sccc2Cl)CC1)n1cc(-c2ncnc3[nH]ccc23)cn1 (stereo not shown) [Example 135] | 20 to 50 nM

// for each molecule below, give its IC50
1. Cc1c(Nc2ccccc2F)ncnc1N1CCC(C(CC#N)n2cc(-c3ncnc4[nH]ccc34)cn2)CC1 (stereo not shown) [Example 147]
2. CCC(CN1CCN(C(=O)c2cc(F)ccc2F)CC1)n1cc(-c2ncnc3[nH]ccc23)cn1 (stereo not shown) [Example 119]

## Output
> 100 nM
50 to 100 nM

###

target.entity: human JAK1 (a.a. 837-1142) (Homo sapiens)
Construct: The catalytic domains of human JAK1 (a.a. 837-1142); His tag (N); made in house; host or cells: insect cells (baculovirus)
Sequence (P23458 849-1154): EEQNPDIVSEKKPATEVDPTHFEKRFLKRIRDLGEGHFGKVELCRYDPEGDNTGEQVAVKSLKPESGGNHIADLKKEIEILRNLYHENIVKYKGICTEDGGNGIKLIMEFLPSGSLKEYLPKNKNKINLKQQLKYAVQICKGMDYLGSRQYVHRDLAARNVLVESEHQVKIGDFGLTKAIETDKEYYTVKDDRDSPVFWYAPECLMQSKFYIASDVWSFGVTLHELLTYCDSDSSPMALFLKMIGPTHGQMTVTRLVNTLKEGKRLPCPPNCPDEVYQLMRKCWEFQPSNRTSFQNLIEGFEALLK
assay: In vitro JAK kinase assay (HTRF, phosphorylation of biotinylated peptide), JAK1
Format: biochemical
study.conditions: 1 mM ATP; Examples 12-91; read-out: JAK1 IC50 (nM) @ 1 mM ATP
Give IC50 for every item shown.

molecule | IC50
N#CCC(CN1CCN(S(=O)(=O)c2ccc3[nH]ncc3c2)CC1)n1cc(-c2ncnc3[nH]ccc23)cn1 (stereo not shown) | < 10 nM

// for each molecule below, give its IC50
1. N#CCC(CN1CCN(C(=O)Nc2cccc(C(F)(F)F)c2F)CC1)n1cc(-c2ncnc3[nH]ccc23)cn1 (stereo not shown)
2. N#CCC(CN1CCN(C(=O)c2c(O)cccc2F)CC1)n1cc(-c2ncnc3[nH]ccc23)cn1 (stereo not shown)
3. N#CCC(CN1CCN(C(=O)c2cccc(F)c2F)CC1)n1cc(-c2ncnc3[nH]ccc23)cn1 (stereo not shown)
4. N#CCC(CN1CCN(C(=O)c2ncc(C#N)cc2F)CC1)n1cc(-c2ncnc3[nH]ccc23)cn1 (stereo not shown)
5. N#CCC(CN1CCN(C(=O)Nc2c(Cl)cccc2Cl)CC1)n1cc(-c2ncnc3[nH]ccc23)cn1 (stereo not shown)
6. Cc1cc(C(=O)N2CCN(CC(CC#N)n3cc(-c4ncnc5[nH]ccc45)cn3)CC2)ccc1F (stereo not shown)
7. COc1ccc(C(=O)N2CCN(CC(CC#N)n3cc(-c4ncnc5[nH]ccc45)cn3)CC2)c(F)c1F (stereo not shown)
8. N#CCC(CN1CCN(C(=O)c2ncc(C#N)cc2F)CC1)n1ccc(-c2ncnc3[nH]ccc23)c1 (stereo not shown)

## Output
10 to 50 nM
< 10 nM
< 10 nM
10 to 50 nM
10 to 50 nM
< 10 nM
< 10 nM
10 to 50 nM

## Input // fetch human JAK1 (a.a. 837-1142) (Homo sapiens) IC50 for N#CCC(CN1CCN(C(=O)c2ccc(C#N)cc2)CC1)n1ccc(-c2ncnc3[nH]ccc23)c1 (stereo not shown)
## Output 10 to 50 nM
